Origin of values: PubChem BioAssay (EPA / NIEHS)

- assayText: BSK_SAg_SRB: Viability Assessment in the BioMAP Diversity Plus: SAg Assay (AID 2283096);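 note: cells read one day after compound addition; hits may be either gain or loss of signal compared with DMSO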
- experimentalContext: primary human HUVEC with PBMC
- Experimental: BSK_SAg is a cell-based, multiplexed-readout assay that uses umbilical vein endothelium and peripheral blood mononuclear cells, a human vascular primary cell co-culture, with measurements taken at 24 hours after chemical dosing in a 96-well plate.BSK_SAg_SRB is an assay component measured in the BSK_SAg assay. […] This assay endpoint, BSK_SAg_SRB, was analyzed with bidirectional fitting relative to DMSO as the negative control and baseline of activity. […]
Active and inactive are the calls of the source. Rule for the calls: active = hit-call score of the fitted dose curve at least 0.9, where 1 is the maximum; inactive = score below 0.9.
Pick from active, inactive when you respond.

Record excerpt, results attached:
OCc1ccccc1 | inactive
C[C@]12C=CC(=O)C=C1CC[C@H]1[C@@H]3C[C@@H](O)[C@](O)(C(=O)CO)[C@@]3(C)C[C@H](O)[C@@]12F | inactive
CCCc1ccccc1 | inactive
CCCCCOC(C)=O | inactive
OC[C@H]1O[C@@H]2O[C@H]3[C@H](O)[C@@H](O)[C@@H](O[C@H]4[C@H](O)[C@@H](O)[C@@H](O[C@H]5[C@H](O)[C@@H](O)[C@@H](O[C@H]6[C@H](O)[C@@H](O)[C@@H](O[C@H]7[C@H](O)[C@@H](O)[C@@H](O[C@H]1[C@H](O)[C@H]2O)O[C@@H]7CO)O[C@@H]6CO)O[C@@H]5CO)O[C@@H]4CO)O[C@@H]3CO | inactive
OC(Cn1cncn1)(Cn1cncn1)c1ccc(F)cc1F | inactive
NNC(=O)c1ccncc1 | inactive
Cn1c(=O)c2[nH]cnc2n(C)c1=O | inactive

Call for entry CCN(CC)C(=S)SSC(=S)N(CC)CC :
active

Also need O=S(=O)(O)c1ccc(N=Nc2c(O)ccc3cc(S(=O)(=O)O)ccc23)cc1 , thanks.
inactive

----------
- assayText: ATG_PBREM_CIS: Attagene CIS-FACTORIAL HepG2 Assay for human Phenobarbital-responsive Enhancer Module (PBREM) (AID 2282955)
- experimentalContext: HepG2 PBREM cis-reporter, Attagene multiplexed transcription; actives raise or lower the signal
The source made the active and inactive calls. How the source made its calls: active means hit-call score of the fitted dose curve at least 0.9, where 1 is the maximum; inactive means score below 0.9.
Mark one answer only. Choices: active, inactive

FC(F)=C(F)C(F)(F)C(F)(F)C(F)(F)C(F)(F)C(F)(F)C(F)(F)F | inactive
S=P(N1CC1)(N1CC1)N1CC1 | inactive
Nc1ccn([C@@H]2O[C@H](CO)[C@@H](O)[C@@H]2O)c(=O)n1 | inactive
O=C(O)CO | inactive
NC(=O)N1c2ccccc2C=Cc2ccccc21 | inactive

Test call, this compound: c1ccc2cc3ccccc3cc2c1
inactive

How about this compound: CCCc1ccccc1
inactive

Please do the same for OC[C@H]1O[C@@](CO)(O[C@H]2O[C@H](CO)[C@@H](O)[C@H](O)[C@H]2O)[C@@H](O)[C@@H]1O as well.
inactive

Next: CCN(CC)C(=S)SSC(=S)N(CC)CC
active

Here is the next compound: CCCCC(CC)C(=O)OCCOCCOCCOC(=O)C(CC)CCCC (stereo unspecified)
inactive

Same read-out for Cn1cc[nH]c1=S ?
inactive

And the next one, C[C@@H](Oc1ccc(CNC(=O)c2cccnc2Oc2ccc3c(c2)OCO3)c(F)c1)C(=O)O ?
inactive

----------
- assayText: Tanguay_ZF_120hpf_YSE_legacy: (Legacy) Oregon State University Tanguay Lab 120 Hour Post-fertilization zebrafish Assay for Yolk Sac Edema (AID 2283634)
Records with an inconclusive call do not appear. Active and inactive are the calls of the source. How the source made its calls: active means hit-call score of the fitted dose curve at least 0.9, where 1 is the maximum; inconclusive means response in the unintended direction; inactive means score below 0.9.
Write down the outcome that applies. Available outcomes: yes (1) for active, no (0) for inactive

Nc1ccn([C@@H]2O[C@H](CO)[C@@H](O)[C@@H]2O)c(=O)n1 | no (0)
O=C(O)[C@H](O)[C@@H](O)C(=O)O | no (0)
NC(=O)NN=Cc1ccc([N+](=O)[O-])o1 | no (0)
Cc1nc(-c2ccccn2)ncc1C(=O)Nn1cc(C)c2cc(F)ccc21 | no (0)
O=C(NO)C1(NS(=O)(=O)c2ccc(Oc3ccc(F)cc3)cc2)CCOCC1 | no (0)
Cc1ncc([C@@H](CCCCCCc2ccc3c(n2)NCCC3)CC(=O)O)cn1 | no (0)
CCCCCCCC1CCC(=O)O1 (stereo not given) | yes (1)
NC(N)=O | no (0)
OCc1ccccc1 | no (0)
CC(C)CCCCCCOC(=O)C1CCCCC1C(=O)OCCCCCCC(C)C (stereo not given) | no (0)

Outcome logged for CCCOc1ccc(S(=O)(=O)N2CCN(CC)CC2)cc1-c1nc2c(CC)n(Cc3ccccn3)nc2c(=O)[nH]1 in this assay:
no (0)

What do we get for CCc1ccc(O)c(C(C)(C)C)c1 ?
no (0)

// next record CCCCCCOC(=O)CC(CC(=O)OCCCCCC)(OC(=O)CCC)C(=O)OCCCCCC
no (0)

What do you get for CC[C@H](C)C(=O)O[C@H]1C[C@H](O)C=C2C=C[C@H](C)[C@H](CC[C@@H](O)C[C@@H](O)CC(=O)O)[C@H]21 ?
no (0)

Another compound to check: O=S(=O)(O)c1ccc(N=Nc2c(O)ccc3cc(S(=O)(=O)O)ccc23)cc1
no (0)

Follow-up item: C=CN1CCCC1=O
no (0)

# repeat for CCCC(CCC)C(=O)O
no (0)

Same lookup for NC(=O)N1c2ccccc2C=Cc2ccccc21 , please.
no (0)

Quick one: C=CCc1cc(S(=O)(=O)c2ccc(O)c(CC=C)c2)ccc1O
no (0)

For CCCCCCCCCCCCCCO then?
no (0)

Would you kindly repeat that for CC(=O)c1ccccc1 ?
no (0)

Follow-up item: COCc1nnc(-c2ccc[n+]([O-])c2)n1-c1c(Cl)c(Cl)cc2[nH]c(=O)c(=O)[nH]c12
no (0)

What about O=C(O)c1cccc(C[C@@H]2COc3ccc(OCc4nc5cc(F)ccc5s4)cc3[C@@H]2O)c1 ?
yes (1)

Proceed to CCCCOC(=O)c1ccccc1
no (0)

Would you kindly repeat that for CC(C)C(=O)Nc1ccc([N+](=O)[O-])c(C(F)(F)F)c1 ?
no (0)

----------
- Read-out: CYP2C8 (gene 1558)
- assayText: LTEA_HepaRG_CYP2C8: Life Technologies and Expression Analysis (LTEA) Assay for CYP2C8 using HepaRG (AID 2283483)
- experimentalContext: mRNA level, 48 h; actives raise or lower the signal
Activity calls are given as the source filed them. The calls were made as follows: active = hit-call score of the fitted dose curve at least 0.9, where 1 is the maximum; inactive = score below 0.9.
Select the matching outcome among active, inactive

Look over these answered cases.
CC(=O)c1ccccc1 | inactive
CC(C)c1nnc2ccc(-c3ocnc3-c3cc(F)ccc3F)cn12 | active
CCN(CC)C(=S)SSC(=S)N(CC)CC | inactive
C=CN1CCCC1=O | inactive

Write down the call the test reported for this compound. Item: CC(C)CCCCCCOC(=O)C1CCCCC1C(=O)OCCCCCCC(C)C (stereo not drawn)
inactive

Next compound up: NC(=O)N1c2ccccc2C=Cc2ccccc21
inactive

Now this one: CCCC(CCC)C(=O)O
inactive

----------
- tgt: Hepatocyte nuclear factor 6 (Homo sapiens) (UniProt Q9UBC0)
- Sequence (Q9UBC0 whole entry, looked up): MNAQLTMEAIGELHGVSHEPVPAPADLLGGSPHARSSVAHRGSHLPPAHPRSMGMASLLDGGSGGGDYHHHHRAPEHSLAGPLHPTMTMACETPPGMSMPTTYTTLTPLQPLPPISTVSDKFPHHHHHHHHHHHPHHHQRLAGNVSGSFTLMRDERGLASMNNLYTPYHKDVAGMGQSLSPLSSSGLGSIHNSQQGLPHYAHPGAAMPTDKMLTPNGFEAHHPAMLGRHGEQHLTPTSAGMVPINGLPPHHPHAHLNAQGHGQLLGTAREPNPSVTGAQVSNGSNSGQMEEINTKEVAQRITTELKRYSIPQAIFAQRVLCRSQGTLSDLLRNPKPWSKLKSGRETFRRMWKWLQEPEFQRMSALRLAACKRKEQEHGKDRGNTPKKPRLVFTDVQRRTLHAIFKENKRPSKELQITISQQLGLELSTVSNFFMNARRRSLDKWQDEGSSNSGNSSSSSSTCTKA
- assayText: ATG_HNF6_CIS: Attagene CIS-FACTORIAL HepG2 Assay for human Hepatocyte Nuclear Factor 6 (HNF6) (AID 2282952)
- experimentalContext: HepG2 Attagene cis-factorial HNF6 reporter transcription; actives raise or lower the signal
Active and inactive are the calls of the source. Rule for the calls: active = hit-call score of the fitted dose curve at least 0.9, where 1 is the maximum; inactive = score below 0.9.
// classify into active, inactive

Completed entries (count: 5):
CC[C@H](C)C(=O)O[C@H]1C[C@H](O)C=C2C=C[C@H](C)[C@H](CC[C@@H](O)C[C@@H](O)CC(=O)O)[C@H]21 | inactive
CCCCCCCCCCCCCCCCOS(=O)(=O)O | inactive
CCCCCCCC/C=C\CCCCCCCC(=O)OC[C@@H](O)[C@H]1OC[C@H](O)[C@H]1O | inactive
Cc1nccn1-c1ccc(Sc2cccc(C3(C(N)=O)CCOCC3)c2)cc1 | active
FC(F)C(F)(F)COCC1CO1 (configuration not stated) | inactive

// return assay outcome for CC(C)C(=O)Nc1ccc([N+](=O)[O-])c(C(F)(F)F)c1
inactive

Moving on to C=CCc1cc(S(=O)(=O)c2ccc(O)c(CC=C)c2)ccc1O
inactive

Further, for O=C(Cl)C(F)(F)C(F)(F)C(F)(F)C(=O)Cl ?
inactive

Now consider FC(F)(F)COC(OCC(F)(F)F)OCC(F)(F)F and answer again.
inactive

----------
- Read-out: catalase (CAT), CAT (gene 847)
- assayText: LTEA_HepaRG_CAT: Life Technologies and Expression Analysis (LTEA) Assay for catalase (CAT) using HepaRG (AID 2283452)
- experimentalContext: mRNA level, 48 h; actives raise or lower the signal
Activity calls are given as the source filed them. Rule for the calls: active = hit-call score of the fitted dose curve at least 0.9, where 1 is the maximum; inactive = score below 0.9.
Valid outcomes are listed here; reply with one: active, inactive

NNC(=O)c1ccncc1 | inactive
OC[C@H]1O[C@@H]2O[C@H]3[C@H](O)[C@@H](O)[C@@H](O[C@H]4[C@H](O)[C@@H](O)[C@@H](O[C@H]5[C@H](O)[C@@H](O)[C@@H](O[C@H]6[C@H](O)[C@@H](O)[C@@H](O[C@H]7[C@H](O)[C@@H](O)[C@@H](O[C@H]1[C@H](O)[C@H]2O)O[C@@H]7CO)O[C@@H]6CO)O[C@@H]5CO)O[C@@H]4CO)O[C@@H]3CO | inactive
c1ccc(C(O[C@@H]2CCCN(CCc3ccc4c(c3)OCO4)C2)c2ccccc2)cc1 | active

Shift focus to the following entry.
Look up the recorded call for COc1cc2c(c(OC)c1OC)-c1ccc(OC)c(=O)cc1[C@@H](NC(C)=O)CC2 in this test.
active
